Target: human TRPV1 (Homo sapiens)
Sequence (Q8NER1 whole entry): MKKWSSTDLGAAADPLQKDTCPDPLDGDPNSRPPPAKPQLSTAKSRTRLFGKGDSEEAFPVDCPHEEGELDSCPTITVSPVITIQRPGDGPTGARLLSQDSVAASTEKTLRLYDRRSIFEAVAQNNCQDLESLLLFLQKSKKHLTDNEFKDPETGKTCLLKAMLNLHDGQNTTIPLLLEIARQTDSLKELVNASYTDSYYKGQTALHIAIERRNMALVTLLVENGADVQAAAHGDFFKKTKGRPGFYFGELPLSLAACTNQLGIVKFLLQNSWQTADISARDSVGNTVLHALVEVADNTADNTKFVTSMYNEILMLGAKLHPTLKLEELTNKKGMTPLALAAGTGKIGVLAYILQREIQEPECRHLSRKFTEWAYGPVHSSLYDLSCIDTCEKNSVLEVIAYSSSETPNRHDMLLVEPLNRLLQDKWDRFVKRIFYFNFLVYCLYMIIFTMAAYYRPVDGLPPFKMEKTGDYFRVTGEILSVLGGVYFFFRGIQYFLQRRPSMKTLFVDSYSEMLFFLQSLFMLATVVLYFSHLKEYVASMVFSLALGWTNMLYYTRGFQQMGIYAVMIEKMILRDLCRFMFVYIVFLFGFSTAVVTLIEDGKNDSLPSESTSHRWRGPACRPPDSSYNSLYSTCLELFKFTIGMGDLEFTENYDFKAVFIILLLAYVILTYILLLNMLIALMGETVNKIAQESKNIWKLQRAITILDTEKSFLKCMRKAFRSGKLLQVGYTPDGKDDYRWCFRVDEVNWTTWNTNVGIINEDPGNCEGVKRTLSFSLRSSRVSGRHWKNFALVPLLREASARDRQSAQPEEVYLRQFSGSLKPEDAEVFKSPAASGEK
Assay: Functional assay: block of capsaicin-induced Ca2+ influx, human assay (hTRPV1/HEK293, FLIPR)
Settings: hTRPV1/HEK293 cells, 150 nM capsaicin challenge, Fluo-3 fluorescence; mean; > value = solubility limit in assay medium
This listing pairs compounds with measured IC50.
Param answer (str): number followed by unit.

Measured IC50 of CS(=O)(=O)c1nc(Nc2ccc(C(F)(F)F)cc2)c2nc(Nc3c(Cl)cccc3Cl)sc2n1 [Example 53] : 196 nM

IC50 in this record for CN(C)CCN(C)c1nc(Nc2ccc(C(F)(F)F)cc2)c2nc(Nc3c(Cl)cccc3Cl)sc2n1 [Example 182] : 1320 nM

CC(C)C1CCCN1c1nc(Nc2ccc(C(F)(F)F)c(Cl)c2)c2nc(Nc3c(Cl)cccc3Cl)sc2n1 (racemic) [Example 118] yielded IC50 of 56 nM

Lookup result for CN1CCN(CCCNc2nc(Nc3ccc(C(F)(F)F)cc3)c3nc(Nc4c(Cl)cccc4Cl)sc3n2)CC1 [Example 153] ; measured IC50: 1420 nM

Value of IC50 reported for the compound CN(C)S(=O)(=O)c1ccc(Nc2ncnc3sc(Nc4c(Cl)cccc4Cl)nc23)cc1 [Example 75] is 1 nM

# IC50 (compound: FC(F)(F)c1ccc(Nc2nc(-c3ccccc3)nc3sc(Nc4c(Cl)cccc4Cl)nc23)cc1 [Example 70] ) is 225 nM

Could you now look at the following compound, please?
Note to self: IC50 recorded for Cc1nc(Nc2ccc(C(C)(C)O)cc2)c2nc(Nc3c(Cl)cccc3Cl)sc2n1 [Example 74] was 1 nM

Recorded values, source patent US20080004253A1.
